Ref: patent US10456405B2

- PROCEDURE_SUMMARY: Plasma stability in vitro, human plasma
- CONDITION_NOTES: human plasma, 2 μM, 37° C., 120 min; in % (unit assumed)
PARAMETER: Content of Tested Substance (n = 2)
I only need the number, thanks.

IN: Would you kindly share the measured Content of Tested Substance (n = 2) for COc1cc(OC)c2c(=O)[nH]c(-c3cc(C)c(OCCOC(=O)c4cccc(CO[N+](=O)[O-])c4)c(C)c3)nc2c1 ?
OUT: 84.5

IN: Recorded Content of Tested Substance (n = 2) for COc1cc(OC)c2c(=O)[nH]c(-c3cc(C)c(OCCOC(=O)ONS(=O)(=O)c4ccc(C)o4)c(C)c3)nc2c1 , please?
OUT: 75.8

IN: Fill blank: measured Content of Tested Substance (n = 2) of the compound COc1cc(OC)c2c(=O)[nH]c(-c3cc(C)c(OCCO[N+](=O)[O-])c(C)c3)nc2c1 is ____.
OUT: 95.8

IN: # input compound: COc1cc(OC)c2c(=O)[nH]c(-c3cc(C)c(OCCOC(=O)ONS(=O)(=O)c4ccc(C)s4)c(C)c3)nc2c1 ; wanted: its Content of Tested Substance (n = 2)
OUT: 86.9

IN: Query (compound): COc1cc(OC)c2c(=O)[nH]c(-c3cc(C)c(OCCOC(=O)CCC(CO[N+](=O)[O-])O[N+](=O)[O-])c(C)c3)nc2c1 (centres unmarked) ; field requested: Content of Tested Substance (n = 2)
OUT: 85.3
